The reported measurements were obtained from paper PMC6470533.

Each entry below carries its recorded MIC SA.
- Test system: Staphylococcus aureus (ATCC 29213)
- Assay type: cell-based
- Condition Label: ATCC 29213, 18 h
Non-standard residues stand in square brackets, D forms with d. Residues, ends and D or L forms follow the SMILES beside them. N(1-naphthylmethyl)Gly = O=C(O)CNCc1cccc2ccccc12; d1Nal = N[C@H](Cc1cccc2ccccc12)C(=O)O; N(4-MeBn)Gly = Cc1ccc(CNCC(=O)O)cc1; dNle = CCCC[C@@H](N)C(=O)O; NBuGly = CCCCNCC(=O)O; Nlys = NCCCCNCC(=O)O
State the answer as a number, implicitly in µg/mL.

# Compound, MIC SA / µg/mL
data = [
    ("CCCCN(CC(N)=O)C(=O)CN(CCCCN)C(=O)CN(Cc1cccc2ccccc12)C(=O)CN(CCCCN)C(=O)CN(Cc1ccc(C)cc1)C(=O)CN(Cc1cccc2ccccc12)C(=O)CNC(=O)CNCCCCN [compound 2] (H-[Nlys]G[N(1-naphthylmethyl)Gly][N(4-MeBn)Gly][Nlys][N(1-naphthylmethyl)Gly][Nlys][NBuGly]-NH2; N-terminus assumed)", 16),
]

The reported value for CCCC[C@@H](NC(=O)CN(CCCCN)C(=O)[C@@H](Cc1cccc2ccccc12)NC(=O)CN(CCCCN)C(=O)[C@@H](Cc1ccccc1)NC(=O)[C@@H](Cc1cccc2ccccc12)NC(=O)CN(CCCCN)C(=O)CNCCCCN)C(N)=O [compound 15] (H-[Nlys][Nlys][d1Nal][dF][Nlys][d1Nal][Nlys][dNle]-NH2; N-terminus assumed) in terms of MIC SA is 32
